Tested on: Staphylococcus simulans
assay method text: Antibacterial activity against methicillin-resistant coagulase-negative Staphylococcus simulans clinical isolate by broth microdilution method
Format: functional
value type: MIC90 (mg/L)

>>> quantitative_result("CCCCCCCCCC(=O)N[C@@H](Cc1c[nH]c2ccccc12)C(=O)N[C@H](CC(N)=O)C(=O)N[C@@H](CC(=O)O)C(=O)N[C@@H]1C(=O)NCC(=O)N[C@@H](CCCN)C(=O)N[C@@H](CC(=O)O)C(=O)N[C@H](C)C(=O)N[C@@H](CC(=O)O)C(=O)NCC(=O)N[C@H](CO)C(=O)N[C@@H]([C@H](C)CC(=O)O)C(=O)N[C@@H](CC(=O)c2ccccc2N)C(=O)O[C@@H]1C")
1
>>> quantitative_result("CC(=O)NC[C@H]1CN(c2ccc(N3CCOCC3)c(F)c2)C(=O)O1")
1
>>> quantitative_result("CN[C@H](CC(C)C)C(=O)N[C@H]1C(=O)N[C@@H](CC(N)=O)C(=O)N[C@H]2C(=O)N[C@H]3C(=O)N[C@H](C(=O)N[C@H](C(=O)O)c4cc(O)cc(O)c4-c4cc3ccc4O)[C@H](O)c3ccc(c(Cl)c3)Oc3cc2cc(c3O[C@@H]2O[C@H](CO)[C@@H](O)[C@H](O)[C@H]2O[C@H]2C[C@](C)(N)[C@H](O)[C@H](C)O2)Oc2ccc(cc2Cl)[C@H]1O")
2
>>> quantitative_result("CCCCCCCCCCNCCN[C@@]1(C)C[C@H](O[C@H]2[C@H](Oc3c4cc5cc3Oc3ccc(cc3Cl)[C@@H](O)[C@@H](NC(=O)[C@@H](CC(C)C)NC)C(=O)N[C@@H](CC(N)=O)C(=O)N[C@H]5C(=O)N[C@H]3C(=O)N[C@H](C(=O)N[C@H](C(=O)O)c5cc(O)c(CNCP(=O)(O)O)c(O)c5-c5cc3ccc5O)[C@H](O)c3ccc(c(Cl)c3)O4)O[C@H](CO)[C@@H](O)[C@@H]2O)O[C@@H](C)[C@H]1O")
0.5
